Ref: PubChem BioAssay (NCI)

- Tested on: SK-MEL-2 melanoma
- testName: NCI tumour cell line growth inhibition, 48 h
Here, each record is paired with measured TGI data.
Give the value in µM but do not write µM after it.

// solved cases for TGI follow
INSERT INTO results (compound, number) VALUES
  ('COc1ccc(C[C@@H]2NC[C@@H](O)[C@@H]2OC(C)=O)cc1', 0.3),
  ('Cc1cc(N=Nc2c(O)ccc3ccccc23)ccc1N=Nc1cccc([N+](C)(C)C)c1', 47.3),
  ('CN(C)CCSc1cccc(-c2cc(-c3cccc(SCCN(C)C)c3)nc(SCCN(C)C)n2)c1', 21.1),
  ('CCCCCCCCCc1cc[n+](CC(=O)c2ccc([N+](=O)[O-])cc2)cc1', 2.06),
  ('CC1=CCC2C3(C)CCC2(C(C)C)C1C3 (stereo unspecified) (tested in a mixture with another compound)', 32.2);

Would you mind telling me what TGI value was observed for "O=c1cc(-c2ccccc2)oc2cc(O)cc(O)c12" ? 39.6

Look at this compound and give its reported TGI. "COC1=CC(=O)C(OC)=C(OC)C1=O" 33.1

Endpoint output: TGI of C/C1=C/C(C)CC(C)OC(=O)C(C)NC(=O)C(Cc2ccc(O)c(I)c2)N(C)C(=O)C(C)NC(=O)C(C)C1 (stereo unspecified) . Value? 5.67

Which TGI value is on record for C/C=C\C(CC(=O)NCCC1CN(S(=O)(=O)C(F)(F)F)c2ccccc21)CC(=O)OC (stereo unspecified) ? 94

Return reported TGI; argument: "COc1cc(C)cc2c1c(=O)c1ccccc1n2C" 49.9

Any idea what its TGI is? The compound is Nc1ccccc1NC(=O)c1ccc(CCCC(=O)Nc2ccc(C3CC3N)cc2)cc1 (stereo unspecified) 7.26

I would be grateful if you could share the reported TGI for "O=C(/C=C/C=C/c1c(C2CC2)nc2ccccc2c1-c1ccc(F)cc1)c1cccs1" . 6.14
